The origin of these recorded values is patent US20030096379A1.

Target: tryptophan decarboxylase TDC2 (Camptotheca acuminata)
Construct: made in house; host or cells: E. coli DH5α (pKK233 plasmid from C. Nessler)
Sequence (P93083 1-498): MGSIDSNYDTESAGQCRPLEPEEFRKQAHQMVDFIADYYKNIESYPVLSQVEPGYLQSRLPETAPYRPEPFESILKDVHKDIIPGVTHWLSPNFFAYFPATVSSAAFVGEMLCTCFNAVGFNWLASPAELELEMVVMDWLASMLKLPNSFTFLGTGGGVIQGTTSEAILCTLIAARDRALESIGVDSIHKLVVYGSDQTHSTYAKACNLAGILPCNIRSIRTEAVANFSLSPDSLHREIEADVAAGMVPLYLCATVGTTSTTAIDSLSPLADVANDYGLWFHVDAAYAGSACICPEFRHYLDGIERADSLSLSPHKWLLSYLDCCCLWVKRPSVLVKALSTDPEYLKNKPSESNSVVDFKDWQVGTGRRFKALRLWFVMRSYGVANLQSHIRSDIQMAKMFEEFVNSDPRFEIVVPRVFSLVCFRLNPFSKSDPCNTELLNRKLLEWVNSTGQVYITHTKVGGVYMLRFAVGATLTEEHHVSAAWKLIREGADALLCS
Test: Substrate screen for tryptophan decarboxylation, TDC2
Format: biochemical, C. accuminata
Design: key: +: a clear ninhydrin-positive spot at the Rf of standard tryptophan derivatives after 16-65 h; (+): a weak spot in the product region; −: no product observed; NR: experiment not run
Conditions: tryptophan derivative, PLP, pH 7.5, 37° C.
quantity: TDC2 (decarboxylation substrate screen)

compound: N[C@@H](Cc1c[nH]c2cccc(CO)c12)C(=O)O [L-4-(hydroxymethyl)-trp, 4-(Hydroxymethyl)-L-tryptophan]
quantity: TDC2 (decarboxylation substrate screen)
assay_value: +
--
compound: N[C@@H](Cc1c[nH]c2ccccc12)C(=O)O
quantity: TDC2 (decarboxylation substrate screen)
assay_value: +
--
compound: Cc1cccc2c(CC(N)C(=O)O)c[nH]c12 (racemic)
quantity: TDC2 (decarboxylation substrate screen)
assay_value: +
--
compound: NC(Cc1c[nH]c2cc(F)ccc12)C(=O)O (racemic)
quantity: TDC2 (decarboxylation substrate screen)
assay_value: −

----------
Target: pig kidney aromatic amino acid decarboxylase (pkAAAD) (Sus scrofa, UniProt P80041)
Construct: Frozen tissue was partially thawed in lysis buffer, then it was extracted and partially purified; from tissue; host or cells: pig kidney
Sequence (P80041 whole entry): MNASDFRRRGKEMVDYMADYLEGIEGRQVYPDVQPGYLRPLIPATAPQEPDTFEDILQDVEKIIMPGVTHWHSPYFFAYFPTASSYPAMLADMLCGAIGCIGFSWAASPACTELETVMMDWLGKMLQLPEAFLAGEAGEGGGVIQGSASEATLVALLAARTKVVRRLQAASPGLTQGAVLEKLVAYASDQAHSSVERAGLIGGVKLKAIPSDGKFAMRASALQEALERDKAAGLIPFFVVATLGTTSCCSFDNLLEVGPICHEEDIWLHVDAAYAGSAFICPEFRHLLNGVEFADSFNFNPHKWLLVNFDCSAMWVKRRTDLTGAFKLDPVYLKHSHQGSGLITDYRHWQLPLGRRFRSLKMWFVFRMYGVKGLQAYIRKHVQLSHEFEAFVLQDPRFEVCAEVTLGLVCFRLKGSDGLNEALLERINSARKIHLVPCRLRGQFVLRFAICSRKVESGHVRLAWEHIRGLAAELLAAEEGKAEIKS
Assay: Substrate screen for tryptophan decarboxylation, pkAAAD
Type: biochemical
Parameters: key: +: a clear ninhydrin-positive spot at the Rf of standard tryptophan derivatives after 16-65 h; (+): a weak spot in the product region; −: no product observed; NR: experiment not run
Details: tryptophan derivative, PLP, pH 7.5, 37° C.
quantity: pkAAAD (decarboxylation substrate screen)

compound: NC(Cc1c[nH]c2cccc(F)c12)C(=O)O (racemic) [DL-4-fluoro-trp]
target_system: pig kidney aromatic amino acid decarboxylase (pkAAAD) (Sus scrofa, UniProt P80041)
assay_value: +
--
compound: NC(Cc1c[nH]c2cc(F)ccc12)C(=O)O (racemic) [DL-6-fluoro-trp]
target_system: pig kidney aromatic amino acid decarboxylase (pkAAAD) (Sus scrofa, UniProt P80041)
assay_value: −
--
compound: Cc1ccc2[nH]cc(CC(N)C(=O)O)c2c1 (racemic) [DL-5-methyl-trp]
target_system: pig kidney aromatic amino acid decarboxylase (pkAAAD) (Sus scrofa, UniProt P80041)
assay_value: −
--
compound: NC(Cc1c[nH]c2ccc(F)cc12)C(=O)O (racemic) [DL-5-fluoro-trp]
target_system: pig kidney aromatic amino acid decarboxylase (pkAAAD) (Sus scrofa, UniProt P80041)
assay_value: −
--
compound: Cc1ccc2c(CC(N)C(=O)O)c[nH]c2c1 (racemic) [DL-6-methyl-trp]
target_system: pig kidney aromatic amino acid decarboxylase (pkAAAD) (Sus scrofa, UniProt P80041)
assay_value: −

----------
Molecular target: tryptophanase (TnA) (Escherichia coli, UniProt P0A853)
Construct: made in house; host or cells: E. coli LMG194 (pBAD) or BL-21 (pET)
Sequence (P0A853 whole entry): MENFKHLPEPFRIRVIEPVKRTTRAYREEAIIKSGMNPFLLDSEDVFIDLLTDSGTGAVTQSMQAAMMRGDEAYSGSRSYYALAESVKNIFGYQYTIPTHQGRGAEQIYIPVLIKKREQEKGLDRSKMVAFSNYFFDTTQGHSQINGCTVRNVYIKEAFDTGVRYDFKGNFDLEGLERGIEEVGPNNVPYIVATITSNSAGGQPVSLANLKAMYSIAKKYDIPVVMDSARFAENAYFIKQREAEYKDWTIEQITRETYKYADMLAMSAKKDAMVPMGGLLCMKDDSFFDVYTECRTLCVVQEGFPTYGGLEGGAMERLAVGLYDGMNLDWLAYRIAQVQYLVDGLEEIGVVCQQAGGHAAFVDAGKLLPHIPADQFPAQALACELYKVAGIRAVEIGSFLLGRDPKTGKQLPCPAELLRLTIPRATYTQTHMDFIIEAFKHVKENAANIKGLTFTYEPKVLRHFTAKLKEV
Format: biochemical, E. coli
Design: key: +: a clear ninhydrin-positive spot at the Rf of standard tryptophan derivatives after 16-65 h; (+): a weak spot in the product region; −: no product observed; NR: experiment not run
Conditions: indole derivative + L-serine + PLP, 37° C., 16-65 h, ninhydrin
quantity: TnA (tryptophan product spot, TLC analysis)

molecule: O=[N+]([O-])c1cccc2[nH]ccc12
assay_value: −
--
molecule: COc1ccc2[nH]c(C)cc2c1
assay_value: −
--
molecule: OCc1ccc2[nH]ccc2c1 [5-hydroxymethyl-, indole-5-methanol]
assay_value: +
--
molecule: Clc1ccc2[nH]ccc2c1
assay_value: +
--
molecule: COc1ccc2[nH]ccc2c1
assay_value: +
--
molecule: N#Cc1ccc2[nH]ccc2c1
assay_value: −

----------
Molecular target: E. coli DH5α tryptophan synthase (TrpBA) (Escherichia coli)
Construct: made in house; host or cells: E. coli LMG194 (pBAD) or BL-21 (pET)
Sequence (P0A879 whole entry): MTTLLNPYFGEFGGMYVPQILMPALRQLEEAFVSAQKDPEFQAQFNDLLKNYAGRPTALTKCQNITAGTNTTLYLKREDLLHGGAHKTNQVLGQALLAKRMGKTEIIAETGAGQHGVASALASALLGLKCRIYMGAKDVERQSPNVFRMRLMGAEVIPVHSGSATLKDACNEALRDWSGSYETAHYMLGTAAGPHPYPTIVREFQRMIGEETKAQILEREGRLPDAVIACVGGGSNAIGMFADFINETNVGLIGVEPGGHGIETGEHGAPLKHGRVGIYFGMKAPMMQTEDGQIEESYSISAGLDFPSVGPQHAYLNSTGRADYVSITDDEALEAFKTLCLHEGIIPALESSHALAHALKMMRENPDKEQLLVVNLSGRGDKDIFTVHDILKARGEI
Sequence (P0A877 whole entry, further chain): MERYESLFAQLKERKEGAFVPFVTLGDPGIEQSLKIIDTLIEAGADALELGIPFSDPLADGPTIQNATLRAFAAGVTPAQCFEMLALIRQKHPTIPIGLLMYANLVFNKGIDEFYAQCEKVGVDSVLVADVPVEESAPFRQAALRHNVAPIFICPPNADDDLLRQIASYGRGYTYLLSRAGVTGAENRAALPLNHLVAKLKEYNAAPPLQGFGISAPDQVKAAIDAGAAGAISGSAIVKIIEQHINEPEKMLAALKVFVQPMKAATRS
Format: biochemical
Design: key: +: a clear ninhydrin-positive spot at the Rf of standard tryptophan derivatives after 16-65 h; (+): a weak spot in the product region; −: no product observed; NR: experiment not run
Settings: indole derivative + L-serine + PLP, 37° C., 16-65 h, ninhydrin
quantity: TrpBA (tryptophan product spot, TLC analysis)

molecule: Clc1ccc2cc[nH]c2c1
assay_value: −

molecule: COc1ccc2[nH]c(C)cc2c1
assay_value: +

molecule: Nc1cccc2[nH]ccc12
assay_value: +

molecule: COc1ccc2cc[nH]c2c1
assay_value: +

molecule: O=[N+]([O-])c1cccc2[nH]ccc12
assay_value: −

molecule: O=[N+]([O-])c1ccc2[nH]ccc2c1
assay_value: −

molecule: Clc1cccc2cc[nH]c12
assay_value: +

molecule: c1ccc2[nH]ccc2c1 [indole, reference compound]
assay_value: +

molecule: COc1cc2cc[nH]c2cc1OC
assay_value: −
